assay_protocol: Test for ulcerogenic effect on the stomach of the rat
Type: in vivo, rat (Chbb:THOM)
condition_parameters: in vivo, po, ED50-ulcer
Readings of TD50 for the listed molecules
Number first, unit second.

Completed entries (count: 2):
OCCCCc1ccc(-c2ccccc2)cc1 : 44.5 mg/kg
CC(C)Cc1ccc(C(C)C(=O)O)cc1 (stereo not drawn) : 31 mg/kg

Here is another molecule to look at.
TD50 recorded for this molecule, CCCCC1C(=O)N(c2ccccc2)N(c2ccccc2)C1=O , is 69 mg/kg

---

assay_protocol: Test for ulcerogenic effect on the stomach of the rat
Format: in vivo, rat (Chbb:THOM)
condition_parameters: in vivo, po, with A 100 mgm/kg, oral, 3 subsequent days, read-out: ED50-ulcer
measurement_kind: TD50

TD50 recorded for this molecule, COc1ccc2c(c1)c(CC(=O)O)c(C)n2C(=O)c1ccc(Cl)cc1 , is 4.9 mg/kg

---

assay_protocol: Test for ulcerogenic effect on the stomach of the rat
Format: in vivo, rat (Chbb:THOM)
condition_parameters: in vivo, po, without A, oral, 3 subsequent days, read-out: ED50-ulcer
Readings of TD50 for the listed compounds
Output spec: scalar in mg/kg, unitless text.

O=C([O-])Cc1ccccc1Nc1c(Cl)cccc1Cl.[Na+] : 2.95

TD50 recorded for this compound, COc1ccc2c(c1)c(CC(=O)O)c(C)n2C(=O)c1ccc(Cl)cc1 , is 2.55

---

assay_protocol: Test for ulcerogenic effect on the stomach of the rat
Type: in vivo, rat (Chbb:THOM)
condition_parameters: in vivo, po, with A 400 mgm/kg, oral, 3 subsequent days, read-out: ED50-ulcer
measurement_kind: TD50 (mg/kg)
Output spec: scalar in mg/kg, unitless text.

TD50 recorded for this compound, O=C([O-])Cc1ccccc1Nc1c(Cl)cccc1Cl.[Na+] , is 5.63
